- System Tested: 11β-HSD1 in 3T3-L1 adipocytes (Mus musculus, UniProt P50172)
- Construct: endogenous in cells
- Sequence (P50172 whole entry): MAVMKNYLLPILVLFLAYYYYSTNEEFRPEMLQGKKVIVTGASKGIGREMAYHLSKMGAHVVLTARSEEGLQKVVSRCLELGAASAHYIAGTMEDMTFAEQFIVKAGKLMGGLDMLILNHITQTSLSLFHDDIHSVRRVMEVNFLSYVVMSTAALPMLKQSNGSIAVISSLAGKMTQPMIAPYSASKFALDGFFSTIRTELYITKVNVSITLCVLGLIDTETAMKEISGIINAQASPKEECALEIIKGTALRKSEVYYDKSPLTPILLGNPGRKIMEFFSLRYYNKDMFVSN
- Protocol Notes: 11β-HSD1 activity assay in 3T3-L1 adipocytes
- Applied Conditions: 1 h incubation, averages of three determinations, read-out: IC50, cellular assay on 3T3-L1 adipocyte against 11β-HSD1
- Description: 11β-HSD1 enzyme inhibition in adipose tissue is believed to be important for achieving efficacy in vivo [11, 12]. Derivatives with potent enzymatic potency and excellent selectivity profiles (13, 14, 17, 28a, 28b and 30) were also evaluated their 11β-HSD1 inhibition in 3T3-L1 adipocyte. The reductase activity of 11β-HSD1 in intact 3T3-L1 adipocytes was determined by measuring the rate of conversion of cortisone to cortisol. […]
Property Label: IC50 (µM)

# Compound, Property Label, Reading Unit, Measured Value
records = [
    ("Cc1c(COCO)oc2c1C(=O)C(=O)c1c-2ccc2c1CCCC2(C)C [Compound 28a]", "IC50", "µM", 3.9),
]

I = CC1(C)CCCc2c1ccc1c2C(=O)C(=O)c2c(CO)coc2-1 [Compound 30]
II = Cc1coc2c1C(=O)C(=O)c1c-2ccc2c1CCC(=O)C2(C)C [Compound 17]
III = Cc1coc2c1C(=O)C(=O)c1c-2ccc2c1C=CCC2(C)C [Compound 13]
IV = Cc1coc2c1C(=O)C(=O)c1c-2ccc2c1CCCC2(C)C [Compound 1, tanshinone IIA]
Query: Returns the items ordered by IC50, from maximum to minimum. Provide the ranking by listing each label in its place in the requested order.
Reply: III, I, IV, II

1 = Cc1c(CO)oc2c1C(=O)C(=O)c1c-2ccc2c1CCCC2(C)C [Compound 28b]
2 = C1CCc2nnc(C34CC5CC(CC(C5)C3)C4)n2CC1 [MK544, reference compound]
Query: Pick one: 1 or 2 . Which has the bigger IC50 number? Returns: label corresponding to the selected item.
Reply: 1
(1: 3.1 µM, 2: 0.4 µM)

Reference source for all entries: paper PMC9492458
